Molecular target: Prostaglandin G/H synthase 1 (Homo sapiens); note: assay procedure not described here
Sequence (P23219 whole entry): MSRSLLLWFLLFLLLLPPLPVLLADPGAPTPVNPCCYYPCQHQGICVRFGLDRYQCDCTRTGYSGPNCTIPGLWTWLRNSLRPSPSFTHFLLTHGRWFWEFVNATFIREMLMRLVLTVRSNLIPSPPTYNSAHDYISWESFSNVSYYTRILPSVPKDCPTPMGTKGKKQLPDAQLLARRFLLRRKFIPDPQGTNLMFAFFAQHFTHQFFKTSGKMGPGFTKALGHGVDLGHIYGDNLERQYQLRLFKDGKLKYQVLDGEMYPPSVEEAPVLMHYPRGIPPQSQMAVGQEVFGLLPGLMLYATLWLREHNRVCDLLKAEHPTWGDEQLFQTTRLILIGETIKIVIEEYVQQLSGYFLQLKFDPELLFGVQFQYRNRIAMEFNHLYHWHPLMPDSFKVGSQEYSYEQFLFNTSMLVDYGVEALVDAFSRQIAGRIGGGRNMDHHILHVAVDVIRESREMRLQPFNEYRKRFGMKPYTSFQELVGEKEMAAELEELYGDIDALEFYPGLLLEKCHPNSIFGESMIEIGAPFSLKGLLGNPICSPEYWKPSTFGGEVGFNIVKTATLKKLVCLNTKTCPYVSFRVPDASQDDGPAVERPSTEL
Type: functional
Here the recorded AC50 is given for each entry.

Example entries begin here.
Problem: What does the record list as AC50 for CC1=CCC(C(C)(C)O)CC1O (centres undefined) ?
Result: > 30 µM

Problem: What does the record list as AC50 for `CNC(=O)Oc1cccc2ccccc12` ?
Result: 3.71 µM

Problem: What does the record list as AC50 for `CC[C@@H]([C@H](C)O)n1ncn(-c2ccc(N3CCN(c4ccc(OC[C@@H]5CO[C@@](Cn6cncn6)(c6ccc(F)cc6F)C5)cc4)CC3)cc2)c1=O` ?
Result: > 30 µM

Problem: What does the record list as AC50 for `N[C@@H](CO)C(=O)O` ?
Result: > 30 µM

Problem: What does the record list as AC50 for CC(CCc1ccccc1)NCC(O)c1ccc(O)c(C(N)=O)c1 (centres undefined) ?
Result: > 30 µM

Further cases:
Problem: What does the record list as AC50 for O=C1/C(=C2\Nc3ccc(S(=O)(=O)O)cc3C2=O)Nc2ccc(S(=O)(=O)O)cc21 [INDIGOTINDISULFONATE] ?
Result: 21.5 µM

Problem: What does the record list as AC50 for CC(=O)O[C@]1(C(C)=O)CC[C@H]2[C@@H]3C=C(Cl)C4=CC(=O)CC[C@]4(C)[C@H]3CC[C@@]21C [CHLORMADINONE ACETATE] ?
Result: > 30 µM
